experimental.system: Calmodulin-1 (Homo sapiens) (UniProt P0DP23)
protocol.summary: CALM1 binders on microarrays, EGTA buffer, profiling panel, biochemical, small-molecule microarray, Cy5-labelled CALM1 (AID 1111);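 further: labelled calmodulin applied in Tris saline Tween buffer holding calcium plus EGTA and DTT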
stated.conditions: Cy5-CALM1 binding fluorescence, higher = more signal
Think of 0.03 as a floor: if composite z-score stands on it or above, it is met; beneath it, not met.

For orientation, consider the following solved cases.
COc1ccc([Si](C)(C)[C@H]2[C@H](CC(=O)N(CCO)Cc3ccccc3)O[C@@]3(C(=O)N(Cc4ccc(N5CCC5=O)cc4)c4ccccc43)[C@@H]2C)cc1: met
CN(C)CCCC[C@@H]1NC(=O)[C@@H]2C[C@H](C(=O)NCCCCCNC(=O)CS)[C@H](c3cccc(OCCO)c3)N2C1=O: met
C#CCOc1ccc(C[C@H]2C(=O)O[C@H](Cc3ccccc3)[C@H](/C=C/C3CC3)N2CC#C)cc1: not met

Next:
[Q] Is it the case that C=C(COC)C(=O)CC[C@@H](OC(=O)c1ccccc1-c1ccccc1C(=O)O)c1cccc(OCCO)c1 has composite z-score reaching or exceeding 0.03?
[A] not met

###

protocol.summary: non-specific cell cytotoxicity, dose response, cytotoxicity control for PAX8 inhibitor project, plate reader, dry powder samples (AID 743021)
stated.conditions: cell line, non-specific cytotoxicity counter-screen; series mostly up to 35 µM
Potency and affinity values are given separately. Results filed as inconclusive are left out. Calls of active or inactive are those of the source. No rule for the calls is given here.
measured.quantity: activity change, negative = cytotoxicity

C[C@@H]1CN([C@H](C)CO)S(=O)(=O)c2ccc(C#Cc3ccncc3)cc2O[C@H]1CN(C)C(=O)Nc1ccc2c(c1)OCO2: inactive
C[C@@H]1CN([C@H](C)CO)C(=O)c2cc(NS(=O)(=O)c3ccccc3)ccc2O[C@@H](C)CCCCO[C@@H]1CN(C)CC1CCCCC1: inactive
C[C@H]1CCCCO[C@@H](CN(C)Cc2ccc(C(F)(F)F)cc2)[C@@H](C)CN([C@@H](C)CO)C(=O)c2cc(NS(=O)(=O)c3cccs3)ccc2O1: inactive

###

For each entry below, report its z-score value.
protocol.summary: PSAC antagonists in infected red cells, primary screen, cell-based, P. falciparum Indochina, OD700, 2 h (AID 1155);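 further: lysis reports solute entry through the parasite surface anion channel PSAC; channel blockers reduce lysis of infected cells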
stated.conditions: P. falciparum Indochina infected erythrocytes, osmotic lysis OD700; higher = more signal, called active from +8 up or from −8 down
One number for each entry.

COCCCN1C(=O)[C@@]2(Cc3ccccc31)c1ccccc1C(=O)N(Cc1ccccc1Cl)[C@H]2c1ccc(CO)cc1: -0.277

Kindly give each listed record's z-score.
1. COc1ccc(C(=O)Nc2cccc(CN3C(=O)[C@@]4(O[C@@H](CCO)[C@H]([Si](C)(C)c5ccc(OC)cc5)[C@H]4C)c4ccccc43)c2)cc1
2. C=C(COC)C(=O)CC[C@H](OC(=O)c1ccccc1-c1ccccc1C(=O)O)c1ccccc1OCCO
3. C=CCN1C(=O)[C@@]2(O[C@@H](CCO)[C@H]([Si](C)(C)c3ccc(OC)cc3)[C@H]2C)c2cc(N3C(=O)c4cccc5cccc3c45)ccc21

[A]
1.27
0.673
9.43

Kindly give each listed record's z-score.
1. Cc1ccc(S[C@]2(C(=O)NCC(C)C)CC(=O)N(C(C)C)[C@@H]2c2ccc(CO)cc2)cc1
2. CC(CO)N1C(=O)[C@@H]2C3C(=O)OCCC/C=C\[C@H]3OC23C=CCN(Cc2ccccc2)C(=O)[C@@H]13 (some centres not stated)

[A]
-0.147
-0.999

[Q] Record request: z-score value, item COC(=O)c1c2oc(c1C(=O)OC)C(=O)N[C@@H](C(C)C)Cn1nncc1C1(CCCCC1)NC(=O)N[C@H](CO)CC2
[A] 1.49

###

protocol.summary: MM1S myeloma cell viability, profiling panel, resazurin fluorescence, basal, 24 h, PK04 Diversity Set (AID 1174);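 further: MM1S multiple myeloma cell line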
stated.conditions: higher = more signal, called active from +8 up or from −8 down
Think of 1 as a floor: if z-score stands on it or above, it is Criterion met; beneath it, Criterion not met.

For orientation, consider the following solved cases.
C=CCC(OC(C)=O)[C@@H]1[C@@H](N(Cc2cc3ccccc3o2)C(=O)c2ccc(-c3ccccc3)cc2)c2cc(OCCCO)ccc2N1C(=O)c1ccc(-c2ccccc2)cc1 (stereo partly specified): Criterion met
O=C(NC1CC1)[C@@H]1c2ccccc2C(=O)N(Cc2ccccc2C(F)(F)F)[C@H]1c1ccc(CO)cc1: Criterion met
C=CCNC(=O)[C@H]1[C@@H]2C(=O)O[C@@H](c3ccccc3)[C@@H](c3ccccc3)N2[C@@H](c2ccccc2OCCO)[C@]12C(=O)N(C(=O)OCCOC)c1ccc(C#CCCO)cc12: Criterion not met

[Q] Is it the case that CC(C)(C)OC(=O)CC[C@]1(C(=O)NCc2ccccc2)N=C(c2ccc(OCCCO)cc2)O[C@H]1c1ccccc1N=[N+]=[N-] has z-score reaching or exceeding 1?
[A] Criterion not met

[Q] Is it the case that C=CCNC(=O)[C@@H]1[C@H]2C(=O)O[C@H](c3ccccc3)[C@H](c3ccccc3)N2[C@H](c2ccc(O)cc2)[C@@]12C(=O)N(C(=O)OCCOC)c1ccc(C#Cc3ccc(OC)cc3)cc12 has z-score reaching or exceeding 1?
[A] Criterion not met

[Q] Is it the case that COc1ccc([Si](C)(C)[C@@H]2[C@@H](CCn3cc(CCO)nn3)O[C@]3(C(=O)N(Cc4ccc(N5C(=O)c6cccc7cccc5c67)cc4)c4ccccc43)[C@H]2C)cc1 has z-score reaching or exceeding 1?
[A] Criterion not met

###

protocol.summary: anti-His antibody binders, primary screen, artefact control for SMM control protein annotation, biochemical, small-molecule microarray, 635 nm fluorescence (AID 1128);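 further: score merges feature fluorescence with signal-to-noise for each printed compound spot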
stated.conditions: anti-His Alexa647 antibody binding, higher = more signal
For each entry below, report its composite z-score value.
Numbers only.

Below: 2 compounds and their reported composite z-score.
O=C(NC1CC1)[C@@H]1c2ccccc2C(=O)N(Cc2ccccc2C(F)(F)F)[C@H]1c1ccc(CO)cc1: 0.911
CC1CC/C=C\[C@H]2OC34C=CCN(C(C)C)C(=O)[C@H]3N(C(CO)C(C)C)C(=O)[C@@H]4C2C(=O)O1 (stereo partly drawn): -1.64

Here is the next item to consider.
[Q] Record request: composite z-score value, item O=C1O[C@@H](c2ccccc2)[C@@H](c2ccccc2)N2[C@@H](c3ccc(OCCO)cc3)[C@]3(C(=O)Nc4ccc(C#CC5(O)CCCCCC5)cc43)[C@@H](C(=O)NC[C@H](O)c3ccccc3)[C@H]12
[A] 2.14

###

System: Human papillomavirus type 1a E7 protein (residues 1-88)
protocol.summary: HPV1a E7 small-molecule binders, primary screen, biochemical, small-molecule microarray, residues 1-88, 635 nm (AID 1129)
stated.conditions: small-molecule microarray binding, fluorescence 635 nm; higher = more signal
Categories are defined by ranges of composite z-score, namely lower segment = under -0.2, middle segment = from -0.2 up to 1, upper segment = 1 and over

COc1ccc(/C=C/C(=O)c2cccc(OCC(=O)OC(C)(C)C)c2)cc1: middle segment

Next:
[Q] Consider O=C1c2ccccc2[C@@]2(Cc3ccccc3N(CC(F)(F)F)C2=O)[C@H](c2ccc(CO)cc2)N1Cc1ccccc1C(F)(F)F . To which composite z-score class does it belong?
[A] lower segment

###

protocol.summary: Cryptococcus neoformans growth inhibition, dose response, Alamar Blue, cherry-picks (AID 686998)
stated.conditions: 24 h; series mostly up to 35 µM
Potency and affinity values are given separately. Results filed as inconclusive are left out. Active and inactive are the calls of the source.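 The calls were made as follows: active = falling signal with fitted half-maximal potency no higher than twice the top valid tested dose; inconclusive = poor fit quality, or flat fit spanning -70% to -30%; inactive = potency over limit, rising signal, or flat fit inside 30%.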
measured.quantity: outcome

Below: 5 compounds and their reported outcome.
C[C@@H]1CCCCO[C@H](CN(C)C(=O)CCCN(C)C)[C@@H](C)CN([C@H](C)CO)C(=O)c2cc(NC(=O)Cc3ccccc3)ccc2O1: inactive
COCCNC(=O)C[C@H]1C[C@@H]2c3cc(NC(=O)C4CCC4)ccc3O[C@@H]2[C@H](CO)O1: inactive
C[C@@H]1CN([C@H](C)CO)C(=O)c2cc(/C=C/c3ccccc3)cnc2O[C@@H]1CN(C)S(C)(=O)=O: inactive
Cc1noc(C)c1NC(=O)N(C)C[C@H]1OCCCC[C@H](C)Oc2ccc(NC(=O)NC(C)C)cc2C(=O)N([C@@H](C)CO)C[C@@H]1C: inactive
O=C(Cc1ccccc1)N[C@H]1C=C[C@@H](CC(=O)N2CCOCC2)O[C@@H]1CO: inactive

Kindly give each listed record's outcome.
1. CC(C)(C)NC(=O)CSc1ncnc2c1cnn2-c1ccccc1
2. CCC(=O)N1C[C@H](O)COC[C@@H]2O[C@@H](CC(=O)NCc3ccccc3Cl)CC[C@H]21
3. COc1ccccc1C(=O)Nc1ccc2c(c1)OC[C@H](C)N(C(C)=O)C[C@H](C)[C@H](OC)CN(C)C2=O
4. CN1C(=O)c2cc(NS(=O)(=O)c3cccc(F)c3)ccc2OC[C@H]2O[C@H](CC(=O)O)CC[C@H]21

[A]
1: inactive; 2: inactive; 3: inactive; 4: inactive

Kindly give each listed record's outcome.
1. CCNC(=O)Nc1ccc2c(c1)C(=O)N(C)[C@H]1CC[C@H](CC(=O)Nc3ccccc3F)O[C@@H]1CO2
2. C[C@H](CO)N1C[C@H](C)[C@@H](CN(C)S(=O)(=O)c2ccc(Cl)cc2)Oc2c(NS(=O)(=O)c3ccc(F)cc3)cccc2C1=O
3. O=S(=O)(NC[C@@H]1[C@@H](c2ccccc2)[C@H](CO)N1CC1CC1)c1ccccc1
4. COc1ccc(NC(=O)N(C)C[C@@H]2OCCCC[C@H](C)Oc3ccc(NC(=O)Nc4ccc5c(c4)OCO5)cc3C(=O)N([C@H](C)CO)C[C@@H]2C)cc1
5. COc1cccc(S(=O)(=O)Nc2ccc3c(c2)[C@H]2C[C@H](CC(=O)N(C)C)O[C@@H](CO)[C@H]2O3)c1
6. O=C(O)C/C(=C\c1cccc(NC(=O)c2ccccc2Cl)c1)c1nc2ccccc2s1
7. O=C(CSc1ncnc2c1cnn2-c1ccccc1)Nc1ccc2c(c1)OCO2
8. COC(=O)C1=C(C)N(Cc2ccc(Br)cc2)C(=S)NC1c1ccc(F)cc1 (configuration not stated)

[A]
1. inactive
2. inactive
3. inactive
4. inactive
5. inactive
6. inactive
7. inactive
8. inactive
